Settings: in 2-butanone, 306.65 K
RECORDED METRIC: solubility (mole fraction)
The response must contain the number and no unit.

Prompt: Reported solubility (mole fraction) for O=c1c2ccccc2sc2ccccc12 : what is it?
Response: 0.00519

---

Details: in acetonitrile, 305.05 K
RECORDED METRIC: solubility (mole fraction)
The response must contain the number and no unit.

Prompt: Reported solubility (mole fraction) for O=c1c2ccccc2sc2ccccc12 : what is it?
Response: 0.000947

---

Settings: in 1,4-dioxane, 297.05 K
RECORDED METRIC: solubility (mole fraction)
The response must contain the number and no unit.

Prompt: Reported solubility (mole fraction) for O=c1c2ccccc2sc2ccccc12 : what is it?
Response: 0.01

---

Settings: in acetonitrile, 313.85 K
RECORDED METRIC: solubility (mole fraction)
The response must contain the number and no unit.

Prompt: Reported solubility (mole fraction) for O=c1c2ccccc2sc2ccccc12 : what is it?
Response: 0.00147

---

Settings: in n-propanol, 326.55 K
RECORDED METRIC: solubility (mole fraction)
The response must contain the number and no unit.

Prompt: Reported solubility (mole fraction) for O=c1c2ccccc2sc2ccccc12 : what is it?
Response: 0.00214

---

Conditions: in ethyl acetate, 307.95 K
RECORDED METRIC: solubility (mole fraction)
The response must contain the number and no unit.

Prompt: Reported solubility (mole fraction) for O=c1c2ccccc2sc2ccccc12 : what is it?
Response: 0.00444

---

Conditions: in ethanol, 326.55 K
RECORDED METRIC: solubility (mole fraction)

Prompt: Reported solubility (mole fraction) for O=c1c2ccccc2sc2ccccc12 : what is it?
Response: 0.00247

---

Details: in acetone, 307.95 K
RECORDED METRIC: solubility (mole fraction)

Prompt: Reported solubility (mole fraction) for O=c1c2ccccc2sc2ccccc12 : what is it?
Response: 0.00317

---

Details: in isopropanol, 311.15 K
RECORDED METRIC: solubility (mole fraction)
The response must contain the number and no unit.

Prompt: Reported solubility (mole fraction) for O=c1c2ccccc2sc2ccccc12 : what is it?
Response: 0.00126

---

Conditions: in THF, 335.95 K
RECORDED METRIC: solubility (mole fraction)
The response must contain the number and no unit.

Prompt: Reported solubility (mole fraction) for O=c1c2ccccc2sc2ccccc12 : what is it?
Response: 0.0274

---

Conditions: in acetonitrile, 322.55 K
RECORDED METRIC: solubility (mole fraction)
The response must contain the number and no unit.

Prompt: Reported solubility (mole fraction) for O=c1c2ccccc2sc2ccccc12 : what is it?
Response: 0.00225

---

Conditions: in 2-butanone, 301.95 K
RECORDED METRIC: solubility (mole fraction)
The response must contain the number and no unit.

Prompt: Reported solubility (mole fraction) for O=c1c2ccccc2sc2ccccc12 : what is it?
Response: 0.00441

---

Conditions: in 2-butanone, 316.15 K
RECORDED METRIC: solubility (mole fraction)
The response must contain the number and no unit.

Prompt: Reported solubility (mole fraction) for O=c1c2ccccc2sc2ccccc12 : what is it?
Response: 0.00696

---

Conditions: in methanol, 326.55 K
RECORDED METRIC: solubility (mole fraction)
The response must contain the number and no unit.

Prompt: Reported solubility (mole fraction) for O=c1c2ccccc2sc2ccccc12 : what is it?
Response: 0.000788
